- Tested on: TO-3-N3-2 (biotin conjugate)
- procedureText: pull-down binding Z-score (relative to library population); higher = stronger binding
- testParameters: RNA library: Library-2
Each record's class is read off its pull-down binding Z-score using these ranges: range 1 (below -0.08), range 2 (-0.08 to below 0.03), range 3 (0.03 or more)

Solved entries (count: 10):
GCUAGUGGGGGACAACCAAUCACUAAUUGUGUUAAGAUGUUGUGUACACACACUGGU | range 3
CCAUAAGCUGUCUAAAACUUCG [hsa-mir-4513] | range 1
AGCCCUGUUGUUGUCAGAUAGUGU [hsa-mir-550a-2] | range 3
GAUCCUUUGUUCUGGAUC [hsa-mir-7856] | range 1
CUUAGGGACAACCUUGAACCUGGG [IAV_invivo_PA_3_Motif_29+IAV_invivo_PA_3_Motif_29] | range 1
UUAUACCUGAUGCUCACGUAUAA [hsa-mir-208a] | range 2
GGAUUGUACAGAAAGUGUGUUAAAUCC [SHAPE_invivo_SARS-CoV-2_Motif_47] | range 3
UGCUAACUAAGGGCA | range 1
CAUGAGCAGUGCUGACUCAACUCAGGCCUAAACUCAUG | range 2
UUUGGUAUUACUUUCAGUGGCAAA [hsa-mir-548j] | range 2

Let's switch to this sequence now.
INPUT: For this sequence, which bin applies? GACACCUGGAUUCAGAGAACAUGUC [hsa-mir-1276]
OUTPUT: range 2

###

Entries and their pull-down binding Z-score values follow.
- Test system: TO-3-N3 (biotin conjugate)
- procedureText: pull-down binding Z-score (relative to library population); higher = stronger binding
- testParameters: RNA library: Library-2
Output: the number by itself.

Known pull-down binding Z-score results, listed for orientation:
UCUUCUUGGAGUCAGGAAAA [hsa-mir-320d-2] | -0.553
CAUCAACCAUAUGUAGUUGAUG | -0.47
GCCACUAGUCUCUAGUCAGUGUGUUAAUCUUACAACCAGAACUCAAUUACCCCCUGCAUACACUAAUUCUUUCACACGUGGU [SHAPE_invivo_SARS-CoV-2_Motif_403] | -0.0417
UGCUCUGAUGAAGACCCAUGUGGC [hsa-mir-621] | -0.162
UCCAGACGGAGAUGCGA [hsa-mir-611] | -0.353

INPUT: Respond only with pull-down binding Z-score recorded for UCAGCUGUGAGCUCAAGGUGGCUGG [hsa-mir-30c-1]
OUTPUT: 0.424

INPUT: Respond only with pull-down binding Z-score recorded for GAGUAUUUUAAUACUGGCAUACUC [hsa-mir-1263]
OUTPUT: -0.584

###

- Test system: TO-3-N3-2 (biotin conjugate)
- procedureText: pull-down binding Z-score (relative to library population); higher = stronger binding
- testParameters: RNA library: Library-2
Criterion: pull-down binding Z-score meeting or surpassing 0.1. Met: Condition met. Not met: Condition not met.

Solved entries (count: 4):
GAACCCAAGAAAAGCUGACUUGGAGGUCCC [hsa-mir-4667] | Condition met
ACAGGGACUACUCCCACCCAAGAAUAGCAUAGAUGCCUUCAAACUCAACAUUAAAUUGUUGGGUGUUGGUGGCAAACCUUGUAUCAAAGUAGCCACUGU | Condition met
GGGGCGUUUAUGCAACCC [IAV_invivo_PB1_2_Motif_33+IAV_invivo_PB1_2_Motif_33] | Condition not met
CCUGCAGGUGAGAGCGGGAACACCUGCAU [hsa-mir-7112] | Condition met

Let's switch to this sequence now.
INPUT: Could you tell me if the measured pull-down binding Z-score of GUUUACAACAGUAGAC reaches 0.1 or more?
OUTPUT: Condition not met

###

- Tested on: TO-N3-2 (biotin conjugate)
- procedureText: pull-down binding Z-score (relative to library population); higher = stronger binding
- testParameters: RNA library: Library-2
Criterion: pull-down binding Z-score meeting or surpassing 0.007. Met: yes (1). Not met: no (0).

UGAAGCCCCGAGAUGCCUCACGUCUUCA [hsa-mir-6802] | yes (1)
AUGGUGCUAACAAAGACGGCAUCAU [SHAPE_invivo_SARS-CoV-2_Motif_545] | no (0)
CGCUAGUAGUGGCG [hsa-mir-3960] | no (0)
ACAGAGACUGAUAGUAAGUUCUCUGU [IAV_invivo_NA_6_Motif_16+IAV_invivo_NA_6_Motif_16] | no (0)
UUUGCUAUUUUUUUUUAAUGGCAAA [hsa-mir-548ac] | no (0)

INPUT: Could you tell me if the measured pull-down binding Z-score of UGAGUGCUAUUUCAGUGCAACA [hsa-mir-362] reaches 0.007 or more?
OUTPUT: yes (1)

INPUT: Could you tell me if the measured pull-down binding Z-score of CUGAGGACAUGCAGUUUCAG [hsa-mir-7702] reaches 0.007 or more?
OUTPUT: no (0)

INPUT: Could you tell me if the measured pull-down binding Z-score of GGCAGGGUCCUCCAGCUCAUUCCUCCUGCC [hsa-mir-6829] reaches 0.007 or more?
OUTPUT: yes (1)

INPUT: Could you tell me if the measured pull-down binding Z-score of AAGUUCCCUCUGGCUGGAAC [hsa-mir-1249] reaches 0.007 or more?
OUTPUT: yes (1)

INPUT: Could you tell me if the measured pull-down binding Z-score of ACUUUUUUUUUUUUUUUUUUUAAUGUUAAAAGU [hsa-mir-5588] reaches 0.007 or more?
OUTPUT: no (0)

INPUT: Could you tell me if the measured pull-down binding Z-score of CCUUAGCACUAGCAGGAGG [hsa-mir-612] reaches 0.007 or more?
OUTPUT: yes (1)

INPUT: Could you tell me if the measured pull-down binding Z-score of CAUGCAAAUUACAUAUUUUGGAGGAAUACAAAUCCAAUUCAGUUGUCUUCCUAUUCUUUAUUUGACAUG reaches 0.007 or more?
OUTPUT: no (0)

INPUT: Could you tell me if the measured pull-down binding Z-score of GCUUUAGUCUACUUCUUGCAGAGUAUAAACUUUGUAAGAAUAAUAAUGAGGC [SHAPE_invitro_SARS-CoV-2_Motif_467] reaches 0.007 or more?
OUTPUT: no (0)

INPUT: Could you tell me if the measured pull-down binding Z-score of GCACCUGUUUGUGAC [hsa-mir-4718] reaches 0.007 or more?
OUTPUT: no (0)

INPUT: Could you tell me if the measured pull-down binding Z-score of AGCAUCUGAAUGGGUACAGUUGUUGU [hsa-mir-6818] reaches 0.007 or more?
OUTPUT: no (0)

INPUT: Could you tell me if the measured pull-down binding Z-score of ACAGUGGCCACAUCUCCAC [hsa-mir-1184-3_1184-2_1184-1] reaches 0.007 or more?
OUTPUT: yes (1)

INPUT: Could you tell me if the measured pull-down binding Z-score of UUAAUUGAAUUGUGCGUGGAUGAGGCUGGUUCUAAAUCACCCAUUCAGUACAUCGAUAUCGGUAAUUAUACAGUUUCCUGUUUACCUUUUACAAUUAA [DMSMaPseq_invitro_SARS-CoV-2_Multi_84_ComplexLevel_1] reaches 0.007 or more?
OUTPUT: no (0)

INPUT: Could you tell me if the measured pull-down binding Z-score of ACAACAGGAGUCACCUUUUGU [DMSMaPseq_invitro_SARS-CoV-2_Motif_108] reaches 0.007 or more?
OUTPUT: no (0)

INPUT: Could you tell me if the measured pull-down binding Z-score of UGUCUUUUUUUUUUUCUGAGACA [hsa-mir-1273c] reaches 0.007 or more?
OUTPUT: no (0)

INPUT: Could you tell me if the measured pull-down binding Z-score of UUUUGCAUUUAAAGUAAUGGCCAAA [hsa-mir-548ay] reaches 0.007 or more?
OUTPUT: no (0)

###

- Test system: TO-3-N3 (biotin conjugate)
- procedureText: pull-down binding Z-score (relative to library population); higher = stronger binding
- testParameters: RNA library: Library-2
Criterion: pull-down binding Z-score meeting or surpassing 0.05. Met: y. Not met: n.

INPUT: Could you tell me if the measured pull-down binding Z-score of GUCUCCUACUAAAUUAAAUGAUCUCUGCUUUACUAAUGUCUAUGCAGAUUCAUUUGUAAUUAGAGGUGAU reaches 0.05 or more?
OUTPUT: n

INPUT: Could you tell me if the measured pull-down binding Z-score of CUGGUGUUCUCACGCAAAGUGGCCAGGGUGUGGGAGACUAGA [hsa-mir-7161] reaches 0.05 or more?
OUTPUT: y

INPUT: Could you tell me if the measured pull-down binding Z-score of CACGAGAUACCAGUGUGCACUUGUG [hsa-mir-542] reaches 0.05 or more?
OUTPUT: n

INPUT: Could you tell me if the measured pull-down binding Z-score of GCCAGACAUGCUCUUGC [hsa-mir-6894] reaches 0.05 or more?
OUTPUT: n

INPUT: Could you tell me if the measured pull-down binding Z-score of AUUGUUACAUAAACCUAUUGUUUGGCAUGUUAACAAU reaches 0.05 or more?
OUTPUT: n

src = the supplement of paper PMC11865577
